Exercise: state measured apparent KD of K4 kissing-loop reporter for each of the sequences provided.
System: K4 kissing-loop RNA reporter;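 further: bound reporter read as fluorescence of individual clusters on recovered sequencing chips by microscopy, with normalized cluster intensities fitted with a binding model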
Experiment: apparent KD of K4 kissing-loop reporter; higher = weaker reporter binding
Conditions: Eterna round: R107; input ligand: FMN 200 uM
Give bare numbers, in nM.

querySequence | system | numericResult
UGUAAGCGCGUAGAUACCAGCAAACGAGUGAUGUUCAAAAGAUUAAGGAAAAGAAAGUAAUGCCCUUGGCAGCUAAUCAUAAGCG [whbob_Ex_Theo_B_sa91] | K4 kissing-loop RNA reporter | 304

Lab note: each sequence below needs its apparent KD of K4 kissing-loop reporter filled in.
1. ACGUCUUGUAAACUCGUGGUUUCGAUCGAUACCAGUAGCGAGAGUUACCCUUGGCAGCGACAUGAGUGAUGUUCAUGUACGAAGA [KL-XTheoA3]
2. AACGUUUUGAGAAGGAGCGCGUUCAGCAGUGAUGUUGCUUUACUUCAAUUUCUAGAUAAUUCGCAGGUAGGUCGCUCAAUACGUA [JR_Nu_ExcArginiB_Sub023]

*A*
1. 98.6
2. 503

Origin of measurements: the supplement of paper PMC9170038
